Target: Tau40 P301L protein (human)
Assay: cell-based or functional assay
Square brackets hold non-standard residues; d marks the D form. Ends that are not written are not given here. dMet(O) = CS(=O)CC[C@@H](N)C(=O)O
# IC50, Tau40 assay (ThT) binned as group 1 (below 1000 nM), group 2 (1000 nM to below 2000 nM), group 3 (2000 nM or more)

Example entries begin here.
binder	classification
[dW][dR][dL][dR][dI][dM][dW] [wrlrimw (PEPTIDE ID NO: 452)]	group 1
[dL][dK][dI][dR][dI][dH][dY][dA] [lkirihya (PEPTIDE ID NO: 269)]	group 2
[dL][dK][dI][dR][dI][dMet(O)][dY] [lkirixy (PEPTIDE ID NO: 297)]	group 2
[dT][dK][dI][dR][dI][dH][dY] [tkirihy (PEPTIDE ID NO: 283)]	group 2
[dL][dK][dI][dR][dI][dF][dY][dH] [lkirifyh (PEPTIDE ID NO: 214)]	group 1
[dW][dK][dL][dW][dL][dR][dW][dW] [wklwlrww (PEPTIDE ID NO: 12)]	group 3
[dL][dR][dL][dK][dV][dR][dW][dL] [lrlkvrwl (PEPTIDE ID NO: 210)]	group 1
[dW][dR][dL][dR][dI][dA][dW] [wrlriaw (PEPTIDE ID NO: 272)]	group 2
[dL][dK][dI][dR][dI][dR][dF][dH] [lkirirfh (PEPTIDE ID NO: 414)]	group 1
[dW][dR][dL][dK][dV][dR][dE][dW] [wrlkvrew (PEPTIDE ID NO: 284)]	group 2

Now for a further binder.
-- ask Which class is correct for the following binder? [dL][dK][dI][dH][dI][dH][dY][dH] [lkihihyh (PEPTIDE ID NO: 295)]
-- reply group 2

Origin of values: patent US20200216495A1
